All figures here come from the MegaScale stability set (Tsuboyama et al. 2023).

Measured folding stability dG values are reported for all entries that follow.
B1: 2M8U (parent)
chain: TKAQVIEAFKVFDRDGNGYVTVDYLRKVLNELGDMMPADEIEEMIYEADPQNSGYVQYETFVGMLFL

Variants of: B1
protocol_description: folding stability dG (cDNA display proteolysis); higher = more stable
experimental_parameters: PBS, room temperature
Provide the reading as a plain figure in kJ/mol.

# annotated cases, reported folding stability dG shown
TKAQVIEAFKVFDRDGNGYVTSDYLRKVLNELGDMMPADEIEEMIYEADPQNSGYVQYETFVGMLFL [V22S] = 12.7
TKAQVIEAFKVFDRDGNGYVVVDYLRKVLNELGDMMPADEIEEMIYEADPQNSGYVQYETFVGMLFL [T21V] = 12.7

Please fill in: folding stability dG reported for TKAQVIEAFKVFDRDGNGYVTVDYLRKVLNELGDMMPADEIEEMIYEADPQNSGYVQYEKFVGMLFL [T60K] = 15.5

Please fill in: folding stability dG reported for TKAQVIEAFCVFDRDGNGYVTVDYLRKVLNELGDMMPADEIEEMIYEADPQNSGYVQYETFVGMLFL [K10C] = 14.7

Please fill in: folding stability dG reported for TKAQVIEAFKVFDRDGNGYVTVDYLRKVLNELGDMMPADEIEEMIYEADPQNSGYVQYETHVGMLFL [F61H] = 4.6

Please fill in: folding stability dG reported for TKWQVIEAFKVFDRDGNGYVTVDYLRKVLNELGDMMPADEIEEMIYEADPQNSGYVQYETFVGMLFL [A3W] = 12.1

Please fill in: folding stability dG reported for TKVQVIEAFKVFDRDGNGYVTVDYLRKVLNELGDMMPADEIEEMIYEADPQNSGYVQYETFVGMLFL [A3V] = 13.4

Please fill in: folding stability dG reported for TKAQVIEAFKVFDRDGNGYVTVDYLRKVLNELMDMMPADEIEEMIYEADPQNSGYVQYETFVGMLFL [G33M] = 17.3

Please fill in: folding stability dG reported for TKAQVIEAFKVFDRDGNGYVTVDYLRKVLNELGDMMPIDEIEEMIYEADPQNSGYVQYETFVGMLFL [A38I] = 15.5
